Value source: paper PMC10057528

# Tested on: LLCMK2 cells
# Protocol text: Mammalian cell viability assay (MTT)
# Type: cell-based
# Details: Macaca mulatta, LLC-MK2, Figure 4g; read-out: IC50 mammalian cell-lines
pIC50: −log10 of the molar value.
Quantity measured: pIC50

{"Compound smiles": "O=C(NCc1coc(-c2ccccc2)n1)Nc1ccc(-c2noc(C(F)(F)F)n2)cc1", "Assay value": 3.87}

---

# Measurement target: TcSir2 (Trypanosoma cruzi)
# Sequence (Q4DP02 1-359): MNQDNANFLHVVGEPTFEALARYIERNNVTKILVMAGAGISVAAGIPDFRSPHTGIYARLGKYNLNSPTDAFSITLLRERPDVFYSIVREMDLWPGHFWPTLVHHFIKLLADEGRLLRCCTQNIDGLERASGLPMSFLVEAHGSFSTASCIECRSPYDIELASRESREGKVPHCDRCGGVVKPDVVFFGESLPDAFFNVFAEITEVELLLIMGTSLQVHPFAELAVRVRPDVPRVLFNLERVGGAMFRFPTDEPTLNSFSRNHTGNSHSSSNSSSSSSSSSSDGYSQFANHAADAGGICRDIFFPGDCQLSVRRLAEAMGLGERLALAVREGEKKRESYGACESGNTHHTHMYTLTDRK
# Protocol text: Recombinant TcSir2 activity assay (fluorescent peptide deacetylation)
# Type: biochemical
# Details: IC50 (TcSir2), recombinant TcSir2 0.1 μM, 10 μM peptide, 25 μM NAD+, 37 °C; ND = values measured but did not converge IC50 significantly
pIC50: −log10 of the molar value.
This section presents compounds with their documented pIC50 values.

{"Compound": "NC(=O)c1cccnc1 [Nicotinamide, reference compound]", "pIC50": 3.01}
{"Compound": "O=C(NCc1coc(-c2ccccc2)n1)Nc1ccc(-c2noc(C(F)(F)F)n2)cc1", "pIC50": 4.40}

---

# Protocol text: Mammalian cell viability assay (MTT)
# Format: cell-based
# Details: rhesus monkey; LLCMK2 cells, MTT, 72 h; ND* = values measured but did not converge IC50 significantly; read-out: EC50 Cell Toxicity
# Method: LLCMK2 cells were maintained in RPMI-1640 medium supplemented with 10% fetal bovine serum (FBS) (Gibco, Carlsbad, CA, USA), penicillin/streptomycin (100 μg.mL^−1 and 0.1 mg.mL^−1, respectively, Sigma-Aldrich, St. Louis, Mo, USA) and 2 mM L-glutamine, and treated every second day. At LLCMK2 cells were maintained in high glucose DMEM (Dulbecco’s Eagle’s Medium) medium, supplemented as previously mentioned. […] The absorbance was determined at 570 nm using Biotek Synergy HT microplate spectrophotometer. […]

{"Molecule": "O=C(NCc1coc(-c2ccccc2)n1)Nc1ccc(-c2noc(C(F)(F)F)n2)cc1", "EC50 at 72 h (µM)": 136}
{"Molecule": "O=C(Cn1ccnc1[N+](=O)[O-])NCc1ccccc1 [BZN, benznidazole, reference compound]", "EC50 at 72 h (µM)": 204}

---

# Measurement target: UniProt Q4DP02
# Protocol text: Recombinant TcSir2 activity assay (fluorescent peptide deacetylation)
Quantity measured: Ki (µM)

{"Compound smiles": "O=C(NCc1coc(-c2ccccc2)n1)Nc1ccc(-c2noc(C(F)(F)F)n2)cc1", "Assay value": 21.5}
